// binding signal lookup, one value per entry
measurementTarget: T1, UNK ZnF1-3 (human, UniProt Q9C0B0 31-174)
T1 sequence: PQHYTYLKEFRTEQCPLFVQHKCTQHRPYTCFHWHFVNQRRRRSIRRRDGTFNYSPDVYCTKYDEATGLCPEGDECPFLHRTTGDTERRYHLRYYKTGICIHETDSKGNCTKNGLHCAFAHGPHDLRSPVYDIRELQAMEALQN
testName: nsRBNS (natural sequence RNA bind-n-seq); RBNS binding buffer (assumed for nsRBNS): 25 mM Tris pH 7.5, 150 mM KCl, 3 mM MgCl2, 0.01% Triton X-100, 500 ug/ml BSA, 20 U/ml SUPERase-In, 4 C; UNK is unkempt and MSI1 is Musashi-1; names of the RNAs are library labels; protein concentration not given here; high values mean tight binding
The full ranking holds about 24,000 sequences; the median of “enrichment r” is about 0.99, and the highest 2% start at about 3.7. This excerpt belongs to a sample that is enriched for the highest values.
Give the number; enrichment R is assumed, so skip it.

Before answering, review these 2 worked examples.
1. 122215373_122233679_156_5pUTR_ENSG00000114030_ENST00000344337|human|control|control (ssRNA) RNA: GGGAGUUCUACAGUCCGACGAUCACUUUUCAGGCGAAAGUUCUCUUUUCCUGGGGUGGUCAUGAUUUCAGGCUCAAGGCAACCGAUCCCGGUGCCACCGCUGAAGUUAGCCCCUCGCUCGCCCGCCCGCCGUGCCACUCCCGCCAACAGAGGAUUGAGCAUCA | 0.57
2. 24503659_24515395_812_3pUTR_ENSG00000112294_ENST00000357578|human|control|control (ssRNA) RNA: GGGAGUUCUACAGUCCGACGAUCGCUCAGCCAGGGCCAGGGCGGAGAAGGGCGUGUCUUCGGCAGGCUUCACCACGACAGUACAGCCGGCUGCCAGGGCGGCCCCCACCUUCCGGGUGAUCAUGGCACUGGGGAAAUUCCACGCAACAGAGGAUUGAGCAUCA | 1.27

*Q* // binding signal lookup, key: 35626089_35772405_348_CDS_ENSG00000108100_ENST00000265375|human|control|control (ssRNA) RNA: GGGAGUUCUACAGUCCGACGAUCGUCCGUCUGAGAUUUACUGAGGAAUAUUGUGCUGGCCCGAGGAUGAUCUGAAGGAUUGAAUUCCAUGUUCAAAUCGUCUAUGUUCUCCCGGUCGCUGAUGUGCUGCAGGUUGCAGCCCGUCAACAGAGGAUUGAGCAUCA
*A* 0.777
